# target.system: T1, TNFR1 (Homo sapiens, UniProt P19438)
# T1 chain: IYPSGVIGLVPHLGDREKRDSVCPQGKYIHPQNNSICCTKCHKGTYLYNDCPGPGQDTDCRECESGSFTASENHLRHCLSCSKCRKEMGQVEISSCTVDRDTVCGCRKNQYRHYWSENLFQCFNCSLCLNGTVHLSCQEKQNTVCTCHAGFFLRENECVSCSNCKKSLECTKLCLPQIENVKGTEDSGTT
# procedure.text: yeast display SC50
// reported apparent Kd (screen) for each item listed

binder	apparent Kd (screen) (nM)
A35M (designed binder) SMEEEVEKAAKEYEKKKKEAIEKHLEKLKAKDKEMAERFLKELEEAAKEYAKDEAKTMSEEEAKRRAKKYKEKVLLSELSEEEQKEIKEAEEKLVRTILKYVEEAAK	0.446
A55V (designed binder) SMEEEVEKAAKEYEKKKKEAIEKHLEKLKAKDKEAAERFLKELEEAAKEYAKDEVKTMSEEEAKRRAKKYKEKVLLSELSEEEQKEIKEAEEKLVRTILKYVEEAAK	3
E89A (designed binder) SMEEEVEKAAKEYEKKKKEAIEKHLEKLKAKDKEAAERFLKELEEAAKEYAKDEAKTMSEEEAKRRAKKYKEKVLLSELSEEEQKEIKAAEEKLVRTILKYVEEAAK	1.4
H24K (designed binder) SMEEEVEKAAKEYEKKKKEAIEKKLEKLKAKDKEAAERFLKELEEAAKEYAKDEAKTMSEEEAKRRAKKYKEKVLLSELSEEEQKEIKEAEEKLVRTILKYVEEAAK	2.73
